Organism: Oryctolagus cuniculus
experiment description: Relaxant effect on rabbit corpus cavernosum
Assay type: functional
EC30 vs 0.01 µM: less than gives Y; not less than gives N.

Q: Here's an entry: `COC(=O)c1c(-c2cc(OC)c(OC)c(OC)c2)c2ccnc(OCCc3ccccn3)c2c(=O)n1Cc1ccnc(C)c1.Cl` . Is its EC30 below 0.01 µM?
Result: N

Q: Here's an entry: `COC(=O)c1c(-c2cc(OC)c(OC)c(OC)c2)c2ccc(OCc3ccccn3)nc2c(=O)n1Cc1ccnc(C)c1.Cl` . Is its EC30 below 0.01 µM?
Result: N

Q: Here's an entry: `COC(=O)c1c(-c2cc(OC)c(OC)c(OC)c2)c2ccc(OCc3ccccn3)cc2c(=O)n1-c1ccc(N)cc1.O=S(=O)(O)O` . Is its EC30 below 0.01 µM?
Result: Y

Q: Here's an entry: `COC(=O)c1c(-c2cc(OC)c(OC)c(OC)c2)c2ccnc(NCCO)c2c(=O)n1Cc1ccnc(C)c1.Cl` . Is its EC30 below 0.01 µM?
Result: N

Q: Here's an entry: `COC(=O)c1c(-c2cc(OC)c(OC)c(OC)c2)c2ccc(OCc3ncccn3)nc2c(=O)n1Cc1ccnc(C)c1.Cl` . Is its EC30 below 0.01 µM?
Result: N

Q: Here's an entry: `COC(=O)c1c(-c2cc(OC)c(OC)c(OC)c2)c2ccnc(OCc3ncccn3)c2c(=O)n1Cc1ccnc(C)c1.Cl` . Is its EC30 below 0.01 µM?
Result: Y

----------
system: Phosphodiesterase 1 (Homo sapiens, UniProt P54750+Q01064+Q14123)
experiment description: Inhibitory activity against phosphodiesterase-1 (PDE1) isolated from canine lung
Format: protein assay, Canis lupus familiaris
condition parameters: target entry is the homologue from another species
IC50 vs 20 µM: less than gives Satisfied; not less than gives Not satisfied.

Q: Here's an entry: `COC(=O)c1c(-c2cc(OC)c(OC)c(OC)c2)c2ccc(NCc3ccccn3)nc2c(=O)n1Cc1ccnc(C)c1.Cl` . Is its IC50 below 20 µM?
Result: Not satisfied

Q: Here's an entry: `COC(=O)c1c(-c2cc(OC)c(OC)c(OC)c2)c2ccnc(NCCO)c2c(=O)n1Cc1ccnc(C)c1.Cl` . Is its IC50 below 20 µM?
Result: Satisfied

Q: Here's an entry: `COC(=O)c1c(-c2cc(OC)c(OC)c(OC)c2)c2ccc(OCc3ccccn3)nc2c(=O)n1-c1ccc(N)cc1.Cl` . Is its IC50 below 20 µM?
Result: Not satisfied

Q: Here's an entry: `COC(=O)c1c(-c2cc(OC)c(OC)c(OC)c2)c2ccc(OCc3cnccn3)nc2c(=O)n1Cc1ccnc(C)c1.Cl` . Is its IC50 below 20 µM?
Result: Not satisfied

----------
Please respond with reported IC50 for every item in the list.
system: Phosphodiesterase 3 (Homo sapiens, UniProt Q14432+Q13370)
experiment description: Inhibitory activity against phosphodiesterase-3 (PDE3) isolated from canine heart
Type: protein assay, Canis lupus familiaris
condition parameters: target entry is the homologue from another species

Q: Specify IC50 for `COC(=O)c1c(-c2cc(OC)c(OC)c(OC)c2)c2ccnc(OCCc3ccccn3)c2c(=O)n1Cc1ccnc(C)c1.Cl` and stop.
Result: > 100 µM

Q: Specify IC50 for `COC(=O)c1c(-c2cc(OC)c(OC)c(OC)c2)c2ccnc(NCCO)c2c(=O)n1Cc1ccnc(C)c1.Cl` and stop.
Result: 5.3 µM

Q: Specify IC50 for `COC(=O)c1c(-c2cc(OC)c(OC)c(OC)c2)c2ccc(OCc3ncccn3)nc2c(=O)n1Cc1ccnc(C)c1.Cl` and stop.
Result: > 100 µM

Q: Specify IC50 for `COC(=O)c1c(-c2cc(OC)c(OC)c(OC)c2)c2ccnc(OCc3ncccn3)c2c(=O)n1Cc1ccnc(C)c1.Cl` and stop.
Result: > 100 µM

Q: Specify IC50 for `COC(=O)c1c(-c2cc(OC)c(OC)c(OC)c2)c2ccc(OCc3ccccn3)nc2c(=O)n1Cc1ccnc(C)c1.Cl` and stop.
Result: > 100 µM
